All figures here come from paper PMC11564732.

assay: Water solubility determination by quantitative 1H-NMR in D2O; type: physicochemical; details: D2O adjusted with NaOD, aqueous buffer, thermodynamic from solid; qNMR in D2O, pH 8.0-8.5 (NaOD), room temperature, potassium hydrogen phthalate external standard
Record form. Attribute: solubility at 10 min. Fill in for each entry.
Please give a number only; it is taken to be in µg/mL.

Query block: Endpoint output: solubility at 10 min of CC1CCC2(C(=O)OCP(=O)([O-])[O-])CCC3(C)C(=CCC4C5(C)CCC(=O)C(C)(C)C5CCC43C)C2C1C.[Na+].[Na+] (centres unmarked) . Value?
Result block: 26000

Query block: Endpoint output: solubility at 10 min of CC1(C)CCC2(C(=O)OCP(=O)([O-])[O-])CCC3(C)C(=CCC4C5(C)CCC(=O)C(C)(C)C5CCC43C)C2C1.[Na+].[Na+] (centres unmarked) . Value?
Result block: 8000

Query block: Endpoint output: solubility at 10 min of `C=C(C)[C@@H]1CC[C@]2(COCP(=O)([O-])[O-])CC[C@]3(C)[C@H](CC[C@@H]4[C@@]5(C)CC[C@H](OCP(=O)([O-])[O-])C(C)(C)[C@@H]5CC[C@]43C)[C@@H]12.[Na+].[Na+].[Na+].[Na+]` . Value?
Result block: 3000

Query block: Endpoint output: solubility at 10 min of C=C(C)C1CCC2(C(=O)OCP(=O)([O-])[O-])CCC3(C)C(CCC4C5(C)CCC(O)C(C)(C)C5CCC43C)C12.[Na+].[Na+] (centres unmarked) . Value?
Result block: 3000

Query block: Endpoint output: solubility at 10 min of CC1(C)CCC2(C(=O)OCP(=O)([O-])[O-])CCC3(C)C(=CCC4C5(C)CCC(O)C(C)(C)C5CCC43C)C2C1.[Na+].[Na+] (centres unmarked) . Value?
Result block: 7000
